system: M14 melanoma; assay: NCI tumour cell line growth inhibition, 48 h
measurementLabel: TGI

# example entries with known answers
O=[N+]([O-])c1cccc(C2N3CCCCC3[C@@H]3c4[nH]c5ccccc5c4CCN23)c1 (stereo partly specified) | 28 µM
O/N=C(\c1ccccc1)N1CCCCC1 | > 100 µM
O=[n+]1c2ccccc2n([O-])c2ccccc21 | > 100 µM
O=C(c1ccccc1)c1ccc2nc3n(c2c1)C(c1c(F)cccc1F)SC3 (stereo unspecified) | 15.4 µM
CCOC(=O)c1cc(C#N)c(=O)n(/N=C(\C)c2ccncc2)c1O | > 100 µM

Output TGI of "COc1cc(/C=C(\C#N)C(=O)c2ccccc2)ccc1OCc1ccccc1"
> 100 µM

====

Below: a set of entries, each annotated with reported TGI.
test system: BT-549 breast; assay: NCI tumour cell line growth inhibition, 48 h

# example entries with known answers
CC(C)=CCC[C@@H](C)C1=C(O)C(O)C(C)=C2N=C(c3ccccc3)C(=O)OC21 (stereo partly specified) | > 25 µM
CC(C)(C#N)c1cc(Cn2cncn2)cc(C(C)(C)C#N)c1 | > 10000 µM
CC(=O)CC(=O)Nc1ccc2ccccc2c1 | > 100 µM

Proceeding to the next compound to report its TGI.
Output TGI of "O=C(Nc1cccc2ccccc12)Nn1cnnc1"
> 100 µM

====

tested on: SNB-19 CNS; experiment: NCI tumour cell line growth inhibition, 48 h
measurementLabel: TGI (µM)
Please give a number only; it is taken to be in µM.

# example entries with known answers
O=c1c2cc(Cl)ccc2oc2ccc(OCCCCCN3CCCCC3)cc12 | 13.5
COc1ccc2cc(CNCCCCCCCCCCCCNCc3ccc4cc(OC)ccc4c3)ccc2c1 | 31.3
C=C1C(=O)O[C@H]2[C@H]1CC/C(CNC(=O)c1cc3cc(OC)ccc3[nH]1)=C\CC[C@@]1(C)O[C@@H]21 | 21.7

Proceeding to the next compound to report its TGI.
Output TGI of CCOC(=O)C(C(=O)OCC)=C1NC2(c3ccccc3Nc3ccc(C)cc32)C(C#N)S1 (stereo not given)
30.8

====

test system: CAKI-1 renal; assay: NCI tumour cell line growth inhibition, 48 h
measurementLabel: TGI

# example entries with known answers
CC(=O)[O-].CC(=O)[O-].[Pt+2].c1cscn1.c1cscn1 | > 100 µM
O=C(N/N=C/c1ccc2c(c1)OCO2)Nc1ccccc1Cl | > 100 µM
O=C(c1cc(Cl)cc(Cl)c1)N(C(=O)N1CCN(c2ccccc2)CC1)c1ccccc1 | > 100 µM
COC(=O)c1cc2c(cc1Cl)SC(N(N(C)C)S(=O)(=O)c1ccc(Br)s1)=NS2(=O)=O | 60.7 µM
CCOC(=O)C(C(=O)OCC)=C1NC2(c3ccccc3Nc3ccc(C)cc32)C(C#N)S1 (stereo unspecified) | 72 µM

Output TGI of O=C1c2ccccc2C(O)(C(=O)O)C1(O)CC=C(Cl)Cl (stereo unspecified)
> 125 µM

Output TGI of "COC(=O)c1s/c(=N\C(=S)N(C)C)n(-c2ccccc2)c1C(=O)OC"
> 100 µM

Output TGI of "COc1cccc(OC/C(N=Cc2cccnc2)=N/NC(=O)c2ccncc2)c1"
> 100 µM

====

test system: NCI-H522 lung; assay: NCI tumour cell line growth inhibition, 48 h
Below: a set of entries, each annotated with reported TGI.

# example entries with known answers
CC(C)CS(=O)(=O)/C(=C(\c1ccc(Br)cc1)S(=O)(=O)CC(C)C)c1ccc(Br)cc1 | > 100 µM
COc1ccc(/C=C2\CCC(CNc3cc(C)on3)C2=O)cc1 (stereo not given) | > 100 µM
O=C(/C=C/c1ccc([N+](=O)[O-])o1)N1CCN(Cc2ccccc2)CC1 | 8.16 µM
COc1ccccc1N1C(=O)/C(=C/c2ccc(N(CCC#N)CCC#N)cc2C)N=C1c1cc([N+](=O)[O-])ccc1Cl | > 100 µM

Output TGI of CC(=O)O[C@H]1CC[C@H]2[C@@H]3CCC4C(C)=NNC(=O)C4[C@H]3CC[C@]12C (stereo not given in full)
> 86.7 µM

Output TGI of "COc1cccc(OC/C(N=Cc2cccnc2)=N/NC(=O)c2ccncc2)c1"
> 100 µM

Output TGI of CC1(C)C2CCC3=C(CCC4(C)C5C[C@](C)(C(=O)O)CC[C@]5(C)CC[C@]34C)[C@@]2(C)CC[C@@H]1O (stereo not given in full)
40.8 µM

Output TGI of "Cc1ccc(-n2cnc3c(N)nc(N)nc32)cc1"
> 100 µM

Output TGI of "CCN(CC)CSc1nc2ccccc2o1"
> 100 µM

Output TGI of COC(=O)C(Cc1c[nH]c2ccccc12)N=C1Nc2ccncc2S(=O)(=O)N1c1ccccc1 (stereo not given)
> 100 µM

====

Below: a set of entries, each annotated with reported TGI.
test system: K-562 leukemia; assay: NCI tumour cell line growth inhibition, 48 h

# example entries with known answers
COC(=O)C(Cc1c[nH]c2ccccc12)N=C1Nc2ccncc2S(=O)(=O)N1c1ccccc1 (stereo not drawn) | 51.8 µM
Cc1cc([C@H](C#N)c2nc3ccccc3[nH]2)nc(Cl)n1 | > 100 µM
CC(C)CS(=O)(=O)/C(=C(\c1ccc(Br)cc1)S(=O)(=O)CC(C)C)c1ccc(Br)cc1 | > 100 µM

Output TGI of "COc1cc2c[n+](C)c3c4cc5c(cc4ccc3c2cc1OC)OCO5"
32.2 µM

Output TGI of "C=C1C(=O)O[C@H]2[C@H]1CC/C(CNC(=O)c1cc3cc(OC)ccc3[nH]1)=C\CC[C@@]1(C)O[C@@H]21"
7.99 µM

Output TGI of "CN[C@@H](C)C(=O)N[C@H](C(=O)N1CCC[C@H]1C(=O)N[C@H]1c2ccccc2C[C@H]1OCC#CC#CCO[C@@H]1Cc2ccccc2[C@@H]1NC(=O)[C@@H]1CCCN1C(=O)[C@@H](NC(=O)[C@H](C)NC)C1CCCCC1)C1CCCCC1"
4.66 µM

Output TGI of CC1=NN(C(=O)CC(=O)Nc2ccc(C)cc2)C(=O)C1N=Nc1ccc(C(=O)O)cc1 (stereo not drawn)
> 100 µM

Output TGI of "COc1ccc(-c2onc(-c3ccc([N+](=O)[O-])cc3)c2C2=NCCN2)cc1"
> 100 µM

====

test system: 786-0 renal; assay: NCI tumour cell line growth inhibition, 48 h
Where a SMILES comes first, the peptide text is derived from it. The star is where a group is joined. Boc = CC(C)(C)OC(=O)*; OBn = c1ccc(CO*)cc1
Below: a set of entries, each annotated with reported TGI.
Please give a number only; it is taken to be in µM.

# example entries with known answers
CC(C)C(NC(=O)C(Cc1ccccc1)NC(=O)OC(C)(C)C)C(=O)NCC(=O)OCc1ccccc1 (stereo not drawn) (Boc-Phe-Val-Gly-OBn; configuration not given here) | 32.1
O=C(c1ccccc1)c1ccc2nc3n(c2c1)C(c1c(F)cccc1F)SC3 (stereo not given) | 47.8
CCN(CC)CC(O)CNc1ccc(NCC2CO2)c2c1C(=O)c1ccccc1C2=O (stereo not given) | 1.15

Proceeding to the next compound to report its TGI.
Give measured TGI for O=[N+]([O-])c1cccc(C2N3CCCCC3[C@@H]3c4[nH]c5ccccc5c4CCN23)c1 (stereo not given in full) (786-0 renal).
43.3

====

Below: a set of entries, each annotated with reported TGI.
system: A498 renal; assay: NCI tumour cell line growth inhibition, 48 h
Please give a number only; it is taken to be in µM.

O=C(N/N=C/c1ccc2c(c1)OCO2)Nc1ccccc1Cl | 35.6
COC(=O)C1=C(O)C(C(=O)OC)[C@]2(O)[C@H](C(=O)OC)[C@H]1C[C@@H](c1ccc(F)cc1)[C@H]2C(=O)OC (stereo not given in full) | 35.1

Proceeding to the next compound to report its TGI.
Output TGI of "O=C1Nc2ccc(C(=O)c3ccco3)cc2/C1=C/c1cc(Cl)c(O)c(Cl)c1"
9.72

====

Below: a set of entries, each annotated with reported TGI.
system: SF-268 CNS; assay: NCI tumour cell line growth inhibition, 48 h
Please give a number only; it is taken to be in µM.

# example entries with known answers
O=C(O[C@H]1CN[C@H](C#Cc2cc3ncnc(Nc4ccc5c(ccn5Cc5cc(F)ccc5F)c4)c3s2)C1)N1CCOCC1 | 8.8
ClCc1cccc(Cn2cnc3c(NC45CC6CC(CC(C6)C4)C5)ncnc32)c1 | 40.5
CCCCc1c2c(nc3c1CCC/C3=C\c1ccccc1)C(=O)CCC2 | 44.3
CCOC(=O)C(C(=O)OCC)=C1NC2(c3ccccc3Nc3ccc(C)cc32)C(C#N)S1 (configuration not stated) | 36.2

Proceeding to the next compound to report its TGI.
Output TGI of "COc1ccc2nc3c([N+](=O)[O-])ccc4c3c(c2c1)N=CN4CCCN(C)C"
17.8
